Listing of recorded inhibition ratio by entry.
target: human B7-H3 protein (human) (UniProt Q5ZPR3); experiment: Octet (BLI) epitope binning on captured human B7-H3; competitor AHP06345
endpoint-label: inhibition ratio (%)

* 294A3C4 (antibody, V domains shown) VH: QVQLQQPGAELVKPGASVKLSCKASGYTFTSYWMHWVKQRPGQGLEWIGMFHPNSGTTNYNEKFKSKATLTVDKSSSTAYMQLSSLTSEDSAVYYCARRLGIFFDYWGQGTTLTVSS VL: DIVMTQSPSSLTVTAGEKVTMSCRSSQSLLNSGNQKNYLTWYQQKPGQPPKLLIYWASTRDSGVPDRFTGSGSGTDFTLTISSVQTEDLAVYYCQTDYSYPFTFGSGTKLEIK | -7.53
* 81C8A1 (antibody, V domains shown) VH: QVTLKESGPGILQPSQTLSLTCSFSGFSLSTSGMGVSWIRQPPGKGLEWLAHIYWDDDRRYNPSLKSRLTISRDTSRNQVFLQITTVDTADTATYYCARSPYGSEAYWGQGTLVIVSA VL: QIVLSQSPTILSAFPGEKVTMTCRASSSVSFIQWYQQKSGSSPKPWIYSPSNLASGVPTRFSGSGSGTSYSLTIGRVEAEDAATYYCQQWSSYPWTFGGGTKVEIK | -12.1
* 216E7A9 (antibody, V domains shown) VH: DVQLVESGGGLVQPGGSRKLSCAASGFTFSSFGMHWVRQAPEKGLEWVAYISSGSSTIYYADTVRGRFTISRDNPKNTLFLQMTSLRSEDTAMYYCARGGDYYYALDYWGQGTSVTVSS VL: DIQMTQSPASLSVSVGETVTITCRASENIHSNLEWYQQKQGKSPQLLVYAATNLADGVPSRFSGSGSGTQYSLKINSLQSEDFGSYYCQHFWGTPFTFGSGTKLEIK | 1.99
* MGA017 (antibody, from a related filing, V domains shown) VH: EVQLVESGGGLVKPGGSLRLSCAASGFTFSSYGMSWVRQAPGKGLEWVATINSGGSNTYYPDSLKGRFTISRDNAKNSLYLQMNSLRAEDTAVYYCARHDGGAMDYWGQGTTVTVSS VL: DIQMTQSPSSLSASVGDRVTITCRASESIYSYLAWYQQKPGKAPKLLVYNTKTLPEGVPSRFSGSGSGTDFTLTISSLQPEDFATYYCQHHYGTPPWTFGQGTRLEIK | -0.09
* 312E1E2 (antibody, V domains shown) VH: QVQLQQSGPELVRPGVSVKISCKGSGYTFTDYAMHWVKQSHAKSLEWIGIVSTHYGNTNYNQNFKGKATMTVDKSSSTVYMELARLTSEDSAIYYCARSEGLRLDWFAHWGQGTLVTVSA VL: DIQMTQSPASLSASVGEIVTITCRASENIYSYLAWYQQKQGKSPHLLVYNAKTLAEGVPSRFSGSGSGTQFSLKISRLQPEDFGSYYCQNHYVFPFTFGSGTKLEIK | 90
* 126C10B10 (antibody, V domains shown) VH: GVQLQQSGAELVKPGASVKLSCTGSGFNIKDPYIHWVKQRPEQGLEWIGRIDPANGNTKYGPRFQGRATMTADTSSNTANLQLSSLTSEDTAVYYCTTWNYYLSRGFDYWGQGTTLTVSS VL: QIVLTQSPAIMSASPGEKVTMTCSARSSVTYMHWYQQKSGTSPKRWIYDTSKLASGVPARFSGSGSGTSYSLTISSMEAEDAATYYCQQWTSNPLTFGAGTKLELK | -5.98
* 97E6B2 (antibody, V domains shown) VH: QVQLQQPGAELVKPGASVKMSCKASGYTFTSYWITWVKQRPGQGLEWIGDIYPGSNNTYYNEKFKSKATLTVDTSSSTAYIQLSSLTSEDSAVYYCARLIMSLFDYSGQGTTLTVSS VL: ENVLTQSPANMSASPGEKVTMTCSVSSSVSYIHWYQQKSSTSPTLWIYDTSKLASGVPGRFSGSGSGNSYALTISSMEAEDVATYYCFQGSAYPLTFGAGTKLELK | -1.18
* 227E12D1 (antibody, V domains shown) VH: EVKLVESGGGLVKPGGSLKLSCAASGFTFSSYGMSWVRQTPEKRLEWVATISGGGTYTYYPDSVKGRFTISRDNAKNNLYLQMSSLRSDDTALYYCARHEGLVMDYWGQGTSVTVSS VL: DIQMTQSPASLSASVGETVTITCRASENIYSYLAWYQQKQGKSPQLVVYNAKTLAEGVPSRFSGSGSGTQFSLKINSLQPEDFGTYYCQHHYGPPPYTFGGGTKLEIK | -5.22
